assay: protein stability index of a GFP-peptide fusion (yeast GPS) (PSI 1-4); higher = more stable; sorted into four equal gates, so the index is relative within each strain; details: san1∆
protein stability index below 3 gives F; protein stability index at or above it gives T.

As a guide, the following entries are already answered.
SSYDLLFNESFIMASVG [SRP72]    F
NLSSTPMETLLSGLSAD [YML031W/NDC1]    F
GNASLKYIALQVIVDIF [YCG1]    F
TAAETFKLFNKYRPETA [RPL8A]    F
LNATTAMDLAQMLIQGV [BRR2]    F

We now examine a further sequence.
Ask | Check this sequence for protein stability index at or above 3: GRSRDGGLRFGEMERDC [RPB2]
Reply | F

----------
Give measured protein stability index for each item. Keep answers brief.
experiment: protein stability index of a GFP-peptide fusion (yeast GPS) (PSI 1-4); higher = more stable; sorted into four equal gates, so the index is relative within each strain; details: pdr5∆
Numbers only.

Here's what some known entries look like.
FGKLLQAYQFLNTFGSK [ITC1]    1.26
DVVTREYTINLHKRLHG [RPL31A]    2.55
NLFKINSIDVPIRINST [YMR129W/POM152]    2.2
IVFDICQILDGELDVLQ [PRP8]    2.63
EASTVPWGDYLQLETPA [BRR2]    2.13
QLYFQKNGAQDLVLQIL [RRI2]    2.81
TDNVSMYPSPTGVMIGI [PRP8]    2.41
NSDDILSLHENYPQDEI [POP1]    3.12
RIHTNDNDIMNLGSRTK [SSN3]    2.97
IEGVVILKKNPDYREEE [RPN1]    3.09

Please look at the items below and tell me protein stability index for each one, in order.
1. LLNILSGLPTCDYYNTF [RPN2]
2. ICKNCSAILLSETDKRQ [RPO31]

Reply |
1. 2.73
2. 2.85

----------
Answer each item with its documented protein stability index.
assay: protein stability index of a GFP-peptide fusion (yeast GPS) (PSI 1-4); higher = more stable; sorted into four equal gates, so the index is relative within each strain; conditions: ubr1∆
Answers are plain numbers.

AILVPMTVNDQPIEKNG [YJR042W/NUP85]    2.8
AFNDSCVNLSLFDARFE [SRB8]    3.14
EKYEDEDEEKILDNTEN [DSN1]    3.21
AGYTDNVIRVWQVMTAN [ASC1]    1.3
LRQLASYYSREQDALFI [RPN1]    1.81
DVLINELLDQVTLGREG [CDC53]    3.17

Here are 2 sequences. What values of protein stability index were reported for them?
1. PGTVLILLAGRFRGKRV [RPL6A]
2. ITSDALEGITTTIDSLN [SMC3]

Reply |
1. 2.19
2. 2.99

Please look at the items below and tell me protein stability index for each one, in order.
1. MNRRKIAMPKRRMAFKP [YLR335W/NUP2]
2. GCIKIYSSRVDSVTTET [BRN1]
3. NDGNNRTNNVPMIKAEE [NUT1]
4. QFSYLSSTLGIDLEDIK [PCI8]
5. ECYKQLFLTAPDSCNMQ [YCS4]

Reply |
1: 3.13; 2: 2.12; 3: 3.77; 4: 2.01; 5: 2.5

Batch request: protein stability index for each of the following sequences.
1. IDVMKSQIIPLMKKACY [SNU114]
2. KLVLNISVGESGDRLTR [RPL11A]

Reply |
1. 2.08
2. 1.08
